biological target: T1, dansylated calmodulin (rat, UniProt P0DP30 1-149, dansyl group covalently bound to CaM (position not given)); test: other fluorescence titration; 12.5 nM D-CaM, ligand added incrementally, enhancement of dansyl emission; 25 mM Tris-HCl, 120 mM KCl, 5 mM NaCl, 2 mM MgCl2, 10 mM EGTA, pH 7.4; no free Ca2+; apparent affinity (EC50 of a Hill fit); settings: both partners purified
T1 construct: calmodulin, rat brain, NM_017326; also called D-CaM; dansyl-CaM
experimental.endpoint: EC50 (nM)
// note: answer is a bare numeric in nM

## Task Could you share which EC50 value was measured for GILGSGFALKVQEQHRQKHFEKRRNPAAGLIQSAWRFYATNLSRTDLHST (domain or fragment, human, UniProt O43526 310-359, looked up, helix A of human Kv7.2 (KCNQ2) Y15065, residues G310-T359; also called segment A; source: E. coli BL21-DE3, purified (GSH sepharose)) [Kv7.2 helix A (hA residues G310–T359)] ?
## Result 46.4
